- Measured Target: T1, recombinant human 4R0N tau (human, UniProt P10636 2-758)
- T1 construct: also called P10636-6
- T1 sequence (P10636 other isoform, or with tags, fused parts or gaps limits assumed): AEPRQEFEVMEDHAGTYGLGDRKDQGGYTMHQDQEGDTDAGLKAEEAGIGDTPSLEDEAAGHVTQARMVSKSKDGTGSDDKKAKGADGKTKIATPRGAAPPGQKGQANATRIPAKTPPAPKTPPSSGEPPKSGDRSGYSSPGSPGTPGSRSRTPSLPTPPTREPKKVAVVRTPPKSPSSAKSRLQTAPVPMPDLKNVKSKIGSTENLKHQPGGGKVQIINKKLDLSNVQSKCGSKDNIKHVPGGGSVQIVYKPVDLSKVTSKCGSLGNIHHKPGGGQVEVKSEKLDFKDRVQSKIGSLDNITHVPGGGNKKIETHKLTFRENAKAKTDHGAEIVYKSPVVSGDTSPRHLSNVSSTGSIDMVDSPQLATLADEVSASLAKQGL
- Assay: SPR, Biacore T200, antibody captured on anti-human Fc, tau as analyte, 1:1 fit
Measured Property: pKd
As a rule, pKd stands for the negative log10 of the concentration, concentration in M.

GET /values?readout=pKd&item= h3D6VHvb8/L2-DIM4 (antibody, V domains shown, Humanized antibody with human Fc) VH: EVQLVQSGAEVVKPGATVKISCKASGFNIKDYYLHWVRQRPGQGLEWIGWIDPENGDTVYEPKFQGRATITADTSTDTAYLQLGSLTSEDTAVYFCSTLDFWGQGTLVTVSS VL: DVVMTQSPLSLPVTLGQPASISCKSSQSLLDSDGKTYLNWLQQRPGQSPRRLIYLVGKRDSGVPDRFSGSGSGTDFTLKISRVEAEDVGVYYCWQGTHFPYTFGGGTKLEIK
9.65

GET /values?readout=pKd&item= h3D6VHvb8/L2-DIM7 (antibody, V domains shown, Humanized antibody with human Fc; also called hu3D6VHv1bA11 D60E / hu3D6VLv2 L54G) VH: EVQLVQSGAEVVKPGATVKISCKASGFNIKDYYLHWVRQRPGQGLEWIGWIDPENGDTVYEPKFQGRATITADTSTDTAYLQLGSLTSEDTAVYFCSTLDFWGQGTLVTVSS VL: DVVMTQSPLSLPVTLGQPASISCKSSQSLLDSDGKTYLNWLLQRPGQSPRRLIYLVSKGDSGVPDRFSGSGSGTDFTLKISRVEAEDVGVYYCWQGTHFPYTFGGGTKLEIK
9.56

GET /values?readout=pKd&item= hu3D6VHv1bA11/L2-DIM12 (antibody, V domains shown, Humanized antibody with human Fc) VH: EVQLVQSGAEVVKPGATVKISCKASGFNIKDYYLHWVRQRPGQGLEWIGWIDPENGDTVYDPKFQGRATITADTSTDTAYLQLGSLTSEDTAVYFCSTLDFWGQGTLVTVSS VL: DVVMTQSPLSLPVTLGQPASISCKSSQSLLDSDGKTYLNWLQQRPGQSPRRLIYLVSKDDSGVPDRFSGSGSGTDFTLKISRVEAEDVGVYYCWQGTHFPYTFGGGTKLEIK
9.31

GET /values?readout=pKd&item= hu3D6VHv1bA11/L2-DIM14 (antibody, V domains shown, Humanized antibody with human Fc) VH: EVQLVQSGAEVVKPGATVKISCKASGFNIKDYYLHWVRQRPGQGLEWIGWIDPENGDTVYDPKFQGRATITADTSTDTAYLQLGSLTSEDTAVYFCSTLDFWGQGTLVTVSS VL: DVVMTQSPLSLPVTLGQPASISCKSSQSLLDSDGKTYLNWLQQRPGQSPRRLIYDVSKLDSGVPDRFSGSGSGTDFTLKISRVEAEDVGVYYCWQGTHFPYTFGGGTKLEIK
8.82

GET /values?readout=pKd&item= hu3D6VHv1bA11/L2-DIM6 (antibody, V domains shown, Humanized antibody with human Fc) VH: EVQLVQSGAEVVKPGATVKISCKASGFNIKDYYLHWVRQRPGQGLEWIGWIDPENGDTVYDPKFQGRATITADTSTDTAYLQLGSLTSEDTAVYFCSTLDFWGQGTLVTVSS VL: DVVMTQSPLSLPVTLGQPASISCKSSQSLLDSDGKTYLNWLQQRPGQSPRRLIYLVGKDDSGVPDRFSGSGSGTDFTLKISRVEAEDVGVYYCWQGTHFPYTFGGGTKLEIK
8.83
